Attribution: the supplement of paper PMC3334620

Let's look at some sequences and their measured PBM E-score.
# subjectOfTest: Cin5 (UniProt P40917)
# Sequence: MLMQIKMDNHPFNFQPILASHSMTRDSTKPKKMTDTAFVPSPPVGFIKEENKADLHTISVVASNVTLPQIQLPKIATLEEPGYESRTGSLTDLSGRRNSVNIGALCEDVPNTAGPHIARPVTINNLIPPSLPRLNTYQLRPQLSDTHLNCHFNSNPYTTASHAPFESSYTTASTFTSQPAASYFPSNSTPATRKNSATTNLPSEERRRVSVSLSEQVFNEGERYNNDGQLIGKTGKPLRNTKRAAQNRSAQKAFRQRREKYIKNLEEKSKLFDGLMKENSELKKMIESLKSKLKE
# assayMethodText: PBM E-score (8-mer binding enrichment) (E-score (-0.5 to 0.5)); higher = stronger / more preferred TF binding
# reportedConditions: protein concentration: 100 nM; construct: GST-full length
Over roughly 33,000 sequences, “E-score (-0.5 to 0.5)” has its median near -0.0059; the highest 2% begin near 0.26. What follows is part of a selection rich in the highest values, with near analogues and random picks from the rest.
In your answer, state the number alone without any accompanying words.

>  <sequenceEntry>
CTTTGCGC

>  <PBM E-score>
0.123

$$$$
>  <sequenceEntry>
GTGGAAGA

>  <PBM E-score>
-0.192

$$$$
>  <sequenceEntry>
AGACAGAC

>  <PBM E-score>
0.192

$$$$

From here, focus on the item given below.
Given the entry ATAGGCCG , what PBM E-score was observed with Cin5 (UniProt P40917)?
-0.185
